Quick reference: log10(MIC) of the listed items.
Tested on: Shigella sonnei II 37148
Test: MIC against bacteria (Table I), strain (12)
Format: cell-based
Settings: II37148; (12) Shigella sonnei II 37148; read-out: MIC
Source text: Now, for illustrating the excellent pharmacological effects of the compounds of this invention, the values of MIC (γ/ml.) of the compounds against various bacteria are shown in Table 1, in which the compounds of this invention used are shown by example numbers.
Value Kind: log10(MIC) (log10 of the value in µg/mL)

Cc1nc(SCC(=O)O)cc(SCC2=C(C(=O)O)N3C(=O)[C@@H](NC(=O)[C@H](NC(=O)c4cnccc4O)c4ccccc4)[C@H]3SC2)n1 [Example 17] | 0.80
CSc1ccc2c(=O)c(C(=O)N[C@@H](C(=O)N[C@@H]3C(=O)N4C(C(=O)O)=C(CSc5nnc(SCC(=O)O)s5)CS[C@H]34)c3ccccc3)c[nH]c2c1 [Example 12] | 0.50
COc1cc(O)ncc1C(=O)N[C@@H](C(=O)N[C@@H]1C(=O)N2C(C(=O)O)=C(CSc3nnc(SCC(=O)O)s3)CS[C@H]12)c1ccccc1 [Example 28] | 1.40
Nc1nc(SCC(=O)O)cc(SCC2=C(C(=O)O)N3C(=O)[C@@H](NC(=O)[C@H](NC(=O)c4cnccc4O)c4ccccc4)[C@H]3SC2)n1 [Example 19] | 1.40
CC(=O)OCC1=C(C(=O)O)N2C(=O)[C@@H](NC(=O)Cc3cccs3)[C@H]2SC1 [Cephalotin, reference compound] | 0.80
Cc1nnc(SCC2=C(C(=O)O)N3C(=O)[C@@H](NC(=O)Cn4cnnn4)[C@H]3SC2)s1 [Cephazolin, reference compound] | 0.19
CC(Sc1nnc(SCC2=C(C(=O)O)N3C(=O)[C@@H](NC(=O)[C@H](NC(=O)c4cnccc4O)c4ccccc4)[C@H]3SC2)s1)C(=O)O (stereo partly drawn) [Example 21] | 0.50
Cc1nc(SCC2=C(C(=O)O)N3C(=O)[C@@H](NC(=O)[C@H](NC(=O)c4cnccc4O)c4ccccc4)[C@H]3SC2)sc1CC(=O)O [Example 23] | 0.50
O=C(O)CSc1nsc(SCC2=C(C(=O)O)N3C(=O)[C@@H](NC(=O)[C@H](NC(=O)c4cnccc4O)c4ccccc4)[C@H]3SC2)n1 [Example 13] | 0.50
O=C(O)CCSc1nnc(SCC2=C(C(=O)O)N3C(=O)[C@@H](NC(=O)[C@H](NC(=O)c4cnccc4O)c4ccccc4)[C@H]3SC2)s1 [Example 5] | 0.80
CC1=C(C(=O)O)N2C(=O)[C@@H](NC(=O)[C@H](N)c3ccccc3)[C@H]2SC1 [Cephalexin, reference compound] | 0.80
O=C(O)CSc1nnc(SCC2=C(C(=O)O)N3C(=O)[C@@H](NC(=O)[C@H](NC(=O)c4cnccc4O)c4ccccc4)[C@H]3SC2)s1 [Example 4] | 0.50
O=C(O)C1=C(CSc2nnc(SCCS(=O)(=O)O)s2)CS[C@@H]2[C@H](NC(=O)[C@H](NC(=O)c3cnccc3O)c3ccccc3)C(=O)N12 [Example 9] | 0.80
CC(=O)OCC1=C(C(=O)O)N2C(=O)[C@@H](NC(=O)[C@H](N)c3ccccc3)[C@H]2SC1 [Cephaloglycin, reference compound] | 1.00
O=C(O)CSc1cc(SCC2=C(C(=O)O)N3C(=O)[C@@H](NC(=O)[C@H](NC(=O)c4cnccc4O)c4ccccc4)[C@H]3SC2)ncn1 [Example 16] | 0.80
Cc1cc(O)c(C(=O)N[C@@H](C(=O)N[C@@H]2C(=O)N3C(C(=O)O)=C(CSc4nnc(SCC(=O)O)s4)CS[C@H]23)c2ccccc2)cn1 [Example 29] | 0.50
Nn1c(SCC(=O)O)nnc1SCC1=C(C(=O)O)N2C(=O)[C@@H](NC(=O)[C@H](NC(=O)c3cnccc3O)c3ccccc3)[C@H]2SC1 [Example 30] | 1.10
Cc1cc(O)c(C(=O)N[C@@H](C(=O)N[C@@H]2C(=O)N3C(C(=O)O)=C(CSc4nnc(CCCC(=O)O)s4)CS[C@H]23)c2ccccc2)cn1 [Example 36] | 0.50
Cc1nc(SCC2=C(C(=O)O)N3C(=O)[C@@H](NC(=O)[C@H](NC(=O)c4cnccc4O)c4ccccc4)[C@H]3SC2)sc1SCC(=O)O [Example 24] | 0.50
O=C(O)Cn1nnnc1SCC1=C(C(=O)O)N2C(=O)[C@@H](NC(=O)[C@H](NC(=O)c3cnccc3O)c3ccccc3)[C@H]2SC1 [Example 15] | 0.50
COc1cc(C)ncc1C(=O)N[C@@H](C(=O)N[C@@H]1C(=O)N2C(C(=O)O)=C(CSc3nnc(SCC(=O)O)s3)CS[C@H]12)c1ccccc1 [Example 37] | 0.80
